PBM E-score for assorted sequences
- TARGET SYSTEM: Upc2 (UniProt Q12151)
- Sequence: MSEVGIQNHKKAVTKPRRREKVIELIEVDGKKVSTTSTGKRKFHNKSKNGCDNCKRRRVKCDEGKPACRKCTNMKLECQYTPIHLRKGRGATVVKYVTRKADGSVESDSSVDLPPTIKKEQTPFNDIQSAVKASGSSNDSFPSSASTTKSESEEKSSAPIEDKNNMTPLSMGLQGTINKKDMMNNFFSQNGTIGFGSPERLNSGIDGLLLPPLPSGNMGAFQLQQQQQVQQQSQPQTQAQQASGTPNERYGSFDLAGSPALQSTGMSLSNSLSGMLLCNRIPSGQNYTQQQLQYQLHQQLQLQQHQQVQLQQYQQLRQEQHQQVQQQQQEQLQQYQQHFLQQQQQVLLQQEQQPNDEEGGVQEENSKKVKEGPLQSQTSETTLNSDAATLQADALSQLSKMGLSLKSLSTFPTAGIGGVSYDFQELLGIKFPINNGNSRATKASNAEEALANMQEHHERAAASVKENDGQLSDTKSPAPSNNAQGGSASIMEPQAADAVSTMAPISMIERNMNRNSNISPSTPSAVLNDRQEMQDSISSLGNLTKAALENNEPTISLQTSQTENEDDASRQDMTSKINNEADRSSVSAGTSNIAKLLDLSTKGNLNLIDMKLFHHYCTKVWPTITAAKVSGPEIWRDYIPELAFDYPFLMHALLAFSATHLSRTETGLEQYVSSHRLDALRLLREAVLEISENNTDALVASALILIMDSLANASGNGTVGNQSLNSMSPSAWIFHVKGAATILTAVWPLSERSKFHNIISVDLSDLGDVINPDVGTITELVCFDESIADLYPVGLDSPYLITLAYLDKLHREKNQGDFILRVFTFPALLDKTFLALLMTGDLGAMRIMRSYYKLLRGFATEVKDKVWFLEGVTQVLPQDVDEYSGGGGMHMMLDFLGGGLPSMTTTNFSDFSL
- TEST PROTOCOL: PBM E-score (8-mer binding enrichment) (E-score (-0.5 to 0.5)); higher = stronger / more preferred TF binding
- RECORDED CONDITIONS: protein concentration: 200 nM; construct: GST-full length
Whole data set: some 33,000 sequences, median “E-score (-0.5 to 0.5)” near -0.043, cut for the highest 2% near 0.37. Shown is part of a subset that was picked to be rich in the highest values.
// return a plain number; no unit text

These recorded examples may help you get a feel for the data.
CGTATAAC :: 0.478
AAAGAAGT :: -0.0114
CACGACAA :: 0.0377
CGCTACGA :: 0.421
CTGGTATC :: -0.187

### Prompt Fill in reported PBM E-score for this entry: "GTCGCTAA"
### Response 0.271

### Prompt Fill in reported PBM E-score for this entry: "AGTACCAG"
### Response -0.134

### Prompt Fill in reported PBM E-score for this entry: "CCGATCTC"
### Response -0.136

### Prompt Fill in reported PBM E-score for this entry: "GACGAAGC"
### Response 0.00181

### Prompt Fill in reported PBM E-score for this entry: "TAAGAAGA"
### Response 0.11

### Prompt Fill in reported PBM E-score for this entry: "GTCGCTTA"
### Response 0.396

### Prompt Fill in reported PBM E-score for this entry: "GCTCGTTA"
### Response 0.39

### Prompt Fill in reported PBM E-score for this entry: "CCGGTACC"
### Response -0.196

### Prompt Fill in reported PBM E-score for this entry: "GCTAACAC"
### Response -0.0792

### Prompt Fill in reported PBM E-score for this entry: "TACGAAGA"
### Response 0.448

### Prompt Fill in reported PBM E-score for this entry: "AACGTATG"
### Response 0.239

### Prompt Fill in reported PBM E-score for this entry: "CAGTGTCC"
### Response -0.141

### Prompt Fill in reported PBM E-score for this entry: "ATCGTATC"
### Response 0.426

### Prompt Fill in reported PBM E-score for this entry: "CGTACCAC"
### Response 0.407

### Prompt Fill in reported PBM E-score for this entry: "AGTATGGC"
### Response -0.129

### Prompt Fill in reported PBM E-score for this entry: "AGTATGGA"
### Response -0.128

### Prompt Fill in reported PBM E-score for this entry: "AGTATAAA"
### Response 0.238

### Prompt Fill in reported PBM E-score for this entry: "GTGGGCTA"
### Response -0.128

### Prompt Fill in reported PBM E-score for this entry: "GAGCGATA"
### Response 0.218
